Assay system A498; read-out recorded as GI50.
State the value with its unit after it.

COc1cc(Nc2ncccc2C(=O)NCc2cn(Cc3cccc(Oc4ccccc4)c3)nn2)cc(OC)c1 [Compound 1i]
4.18 µM
O=C(NCc1cn(Cc2cccc(Oc3ccccc3)c2)nn1)c1cccnc1Nc1ccc(F)cc1 [Compound 1b]
2.35 µM
O=C(NCc1cn(Cc2cccc(Oc3ccccc3)c2)nn1)c1cccnc1NCc1ccc(Cl)cc1 [Compound 1k]
2.12 µM

# input Using the record for COc1ccc(Nc2ncccc2C(=O)NCc2cn(Cc3cccc(Oc4ccccc4)c3)nn2)c(OC)c1 [Compound 1g] , report its GI50.
# output 1.01 µM

# input Using the record for COc1ccc(Nc2ncccc2C(=O)NCc2cn(Cc3cccc(Oc4ccccc4)c3)nn2)cc1 [Compound 1e] , report its GI50.
# output 4.18 µM

# input Using the record for O=C(NCc1cn(Cc2cccc(Oc3ccccc3)c2)nn1)c1cccnc1Nc1ccccc1 [Compound 1a] , report its GI50.
# output 13.7 µM

###

Assay system COLO 205; read-out recorded as GI50.
State the value with its unit after it.

O=C(NCc1cn(Cc2cccc(Oc3ccccc3)c2)nn1)c1cccnc1Nc1ccccc1
2790 nM
O=C(NCc1cn(Cc2cccc(Oc3ccccc3)c2)nn1)c1cccnc1Nc1ccc(F)cc1
6220 nM
COc1ccc(Nc2ncccc2C(=O)NCc2cn(Cc3cccc(Oc4ccccc4)c3)nn2)c(OC)c1
2140 nM
COc1cc(Nc2ncccc2C(=O)NCc2cn(Cc3cccc(Oc4ccccc4)c3)nn2)cc(OC)c1
4120 nM
COc1ccc(Nc2ncccc2C(=O)NCc2cn(Cc3cccc(Oc4ccccc4)c3)nn2)cc1
2860 nM

Please find the next molecule below.
# input What value of GI50 on COLO 205 does `O=C(NCc1cn(Cc2cccc(Oc3ccccc3)c2)nn1)c1cccnc1NCc1ccc(Cl)cc1` have?
# output 2180 nM

###

Test system: NCI-H23
Please use TRUE for GI50 under 3 µM and FALSE for everything else, ties included.

Worked examples follow.
COc1ccc(Nc2ncccc2C(=O)NCc2cn(Cc3cccc(Oc4ccccc4)c3)nn2)c(OC)c1
TRUE
COc1cc(Nc2ncccc2C(=O)NCc2cn(Cc3cccc(Oc4ccccc4)c3)nn2)cc(OC)c1
FALSE
O=C(NCc1cn(Cc2cccc(Oc3ccccc3)c2)nn1)c1cccnc1Nc1ccccc1
FALSE
COc1ccc(Nc2ncccc2C(=O)NCc2cn(Cc3cccc(Oc4ccccc4)c3)nn2)cc1
FALSE

# input Dear reviewer, please state whether `O=C(NCc1cn(Cc2cccc(Oc3ccccc3)c2)nn1)c1cccnc1Nc1ccc(F)cc1` has GI50 strictly beneath 3 µM.
# output FALSE

###

Assay system SNB-75; read-out recorded as GI50.
State the value with its unit after it.

# input What value of GI50 on SNB-75 does `COc1ccc(Nc2ncccc2C(=O)NCc2cn(Cc3cccc(Oc4ccccc4)c3)nn2)cc1` have?
# output 3.09 µM

# input What value of GI50 on SNB-75 does `COc1cc(Nc2ncccc2C(=O)NCc2cn(Cc3cccc(Oc4ccccc4)c3)nn2)cc(OC)c1` have?
# output 3.98 µM

# input What value of GI50 on SNB-75 does `O=C(NCc1cn(Cc2cccc(Oc3ccccc3)c2)nn1)c1cccnc1Nc1ccc(F)cc1` have?
# output 3.81 µM

# input What value of GI50 on SNB-75 does `COc1ccc(Nc2ncccc2C(=O)NCc2cn(Cc3cccc(Oc4ccccc4)c3)nn2)c(OC)c1` have?
# output 3.41 µM

# input What value of GI50 on SNB-75 does `O=C(NCc1cn(Cc2cccc(Oc3ccccc3)c2)nn1)c1cccnc1NCc1ccc(Cl)cc1` have?
# output 2.02 µM

# input What value of GI50 on SNB-75 does `O=C(NCc1cn(Cc2cccc(Oc3ccccc3)c2)nn1)c1cccnc1Nc1ccccc1` have?
# output 1.94 µM
